- Assay: Half life in rat plasma by RP-HPLC method
- Type: ADME, cell-free
Positions of bridges follow the written chain, without caps; N, C: chain ends. Residues, ends and D or L forms follow the SMILES beside them.
Measurement Label: half-life
# include the unit after the value

### Prompt GET /values?readout=half-life&item= CC[C@H](C)[C@@H]1NC(=O)[C@H](CCCNC(=N)N)NC(=O)[C@H](CC(C)C)NC(=O)[C@H](Cc2ccccc2)NC(=O)CC[C@@H](C(=O)N[C@@H](CCCCN)C(=O)O)NC(=O)[C@H](CCCNC(=N)N)NC1=O (FLRIREK-OH; lactam N-6)
### Response 5.5 h
